# assay-details: in vivo
# condition-description: bovine, 10 mg/kg
Where a name gives a salt, the structure may show the parent alone.
measurement-name: Tmax (h)
Please respond with the number in h and leave the unit unwritten.

I am curious: what Tmax value has been reported for N#Cc1cc(I)c(O)c([N+](=O)[O-])c1 [nitroxynil N-ethyl-D-glucamine salt] ?
4
